- assay overview: Cytotoxicity against mouse LLC cells assessed as reduction in cell viability
- Assay type: toxicity, cell-based
- conditions: LLC (3LL) cells
Please respond with reported IC50 for every item in the list.
Express it in µg/mL; write the number only.

IN: If you can, please state the reported IC50 value of "C[C@H](CCC(=O)NCc1cn(CCCCn2cc(CNC(=O)CC[C@@H](C)[C@H]3CC[C@H]4[C@@H]5[C@H](OC(=O)CN)C[C@@H]6C[C@H](OC(=O)CN)CC[C@]6(C)[C@H]5C[C@H](OC(=O)CN)[C@]34C)nn2)nn1)[C@H]1CC[C@H]2[C@@H]3[C@H](OC(=O)CN)C[C@@H]4C[C@H](OC(=O)CN)CC[C@]4(C)[C@H]3C[C@H](OC(=O)CN)[C@]12C.Cl.Cl.Cl.Cl.Cl.Cl" .
OUT: 211

IN: If you can, please state the reported IC50 value of "C[C@H](CCC(=O)NCc1cn(CCCn2cc(CNC(=O)CC[C@@H](C)[C@H]3CC[C@H]4[C@@H]5[C@H](OC(=O)CN)C[C@@H]6C[C@H](OC(=O)CN)CC[C@]6(C)[C@H]5C[C@H](OC(=O)CN)[C@]34C)nn2)nn1)[C@H]1CC[C@H]2[C@@H]3[C@H](OC(=O)CN)C[C@@H]4C[C@H](OC(=O)CN)CC[C@]4(C)[C@H]3C[C@H](OC(=O)CN)[C@]12C.Cl.Cl.Cl.Cl.Cl.Cl" .
OUT: 131

IN: If you can, please state the reported IC50 value of "C[C@H](CCC(=O)NCc1cn(CCCCCn2cc(CNC(=O)CC[C@@H](C)[C@H]3CC[C@H]4[C@@H]5[C@H](OC(=O)CN)C[C@@H]6C[C@H](OC(=O)CN)CC[C@]6(C)[C@H]5C[C@H](OC(=O)CN)[C@]34C)nn2)nn1)[C@H]1CC[C@H]2[C@@H]3[C@H](OC(=O)CN)C[C@@H]4C[C@H](OC(=O)CN)CC[C@]4(C)[C@H]3C[C@H](OC(=O)CN)[C@]12C.Cl.Cl.Cl.Cl.Cl.Cl" .
OUT: 153

IN: If you can, please state the reported IC50 value of CC(C)C(N)C(=O)NCC(=O)O[C@@H]1CC[C@@]2(C)[C@@H](C1)C[C@@H](OC(=O)CNC(=O)C(N)C(C)C)[C@@H]1[C@@H]2C[C@H](OC(=O)CNC(=O)C(N)C(C)C)[C@]2(C)[C@@H]([C@H](C)CCC(=O)OCc3ccccc3)CC[C@@H]12 (some centres not stated) .
OUT: 40

IN: If you can, please state the reported IC50 value of "C[C@H](CCC(=O)NCc1cn(CCCCCCn2cc(CNC(=O)CC[C@@H](C)[C@H]3CC[C@H]4[C@@H]5[C@H](OC(=O)CN)C[C@@H]6C[C@H](OC(=O)CN)CC[C@]6(C)[C@H]5C[C@H](OC(=O)CN)[C@]34C)nn2)nn1)[C@H]1CC[C@H]2[C@@H]3[C@H](OC(=O)CN)C[C@@H]4C[C@H](OC(=O)CN)CC[C@]4(C)[C@H]3C[C@H](OC(=O)CN)[C@]12C.Cl.Cl.Cl.Cl.Cl.Cl" .
OUT: 66
